# DC50 listing for each entry below
# TEST SYSTEM: SMARCA2 (Homo sapiens, UniProt P51531)
# Sequence (P51531 whole entry): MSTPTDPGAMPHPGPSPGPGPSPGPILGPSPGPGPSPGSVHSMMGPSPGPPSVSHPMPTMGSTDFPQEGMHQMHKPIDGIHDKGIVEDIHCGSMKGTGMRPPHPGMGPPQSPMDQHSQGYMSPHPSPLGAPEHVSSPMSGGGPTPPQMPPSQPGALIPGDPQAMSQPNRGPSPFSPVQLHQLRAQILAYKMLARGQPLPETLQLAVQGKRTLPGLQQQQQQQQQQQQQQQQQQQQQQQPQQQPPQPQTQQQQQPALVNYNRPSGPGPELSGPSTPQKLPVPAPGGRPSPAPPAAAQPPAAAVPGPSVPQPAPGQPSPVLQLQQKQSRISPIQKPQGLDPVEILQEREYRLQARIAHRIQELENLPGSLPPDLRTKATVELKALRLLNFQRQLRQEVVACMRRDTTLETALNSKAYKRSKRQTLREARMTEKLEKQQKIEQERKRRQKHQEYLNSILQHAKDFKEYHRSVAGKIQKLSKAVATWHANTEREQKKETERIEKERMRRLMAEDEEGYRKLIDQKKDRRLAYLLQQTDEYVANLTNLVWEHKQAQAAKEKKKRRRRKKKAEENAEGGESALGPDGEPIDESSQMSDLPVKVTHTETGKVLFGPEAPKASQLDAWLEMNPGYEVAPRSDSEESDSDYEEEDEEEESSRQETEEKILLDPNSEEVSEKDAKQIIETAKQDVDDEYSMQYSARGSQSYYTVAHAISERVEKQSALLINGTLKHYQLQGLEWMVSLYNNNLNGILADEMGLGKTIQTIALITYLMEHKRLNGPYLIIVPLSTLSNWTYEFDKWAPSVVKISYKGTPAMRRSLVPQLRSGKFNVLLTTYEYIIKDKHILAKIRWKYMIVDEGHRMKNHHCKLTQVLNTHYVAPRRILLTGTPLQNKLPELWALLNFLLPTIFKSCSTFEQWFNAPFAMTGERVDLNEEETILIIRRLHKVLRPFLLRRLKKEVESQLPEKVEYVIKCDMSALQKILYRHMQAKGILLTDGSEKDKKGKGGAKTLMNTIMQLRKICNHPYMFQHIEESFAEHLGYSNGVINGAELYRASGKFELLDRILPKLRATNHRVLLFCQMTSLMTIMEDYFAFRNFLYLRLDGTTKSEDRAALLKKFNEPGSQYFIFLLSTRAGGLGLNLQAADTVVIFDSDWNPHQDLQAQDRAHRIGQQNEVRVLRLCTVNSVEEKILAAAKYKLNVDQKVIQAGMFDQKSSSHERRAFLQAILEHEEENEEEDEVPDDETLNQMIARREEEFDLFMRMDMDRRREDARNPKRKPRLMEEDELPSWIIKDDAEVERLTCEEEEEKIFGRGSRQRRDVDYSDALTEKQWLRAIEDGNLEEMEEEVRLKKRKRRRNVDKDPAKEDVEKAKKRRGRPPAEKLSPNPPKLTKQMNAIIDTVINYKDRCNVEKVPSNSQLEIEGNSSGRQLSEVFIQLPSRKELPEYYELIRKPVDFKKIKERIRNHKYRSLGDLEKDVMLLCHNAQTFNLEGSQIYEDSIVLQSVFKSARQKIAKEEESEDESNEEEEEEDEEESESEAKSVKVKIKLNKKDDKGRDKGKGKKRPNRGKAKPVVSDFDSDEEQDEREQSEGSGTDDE
# EXPERIMENT NOTES: SMARCA2 Western blot MV4-11 degradation
# Format: cell-based
# ASSAY CONDITIONS: MV4-11 cells, 24 h, read-out: SMARCA2 WB MV411 degradation 24 h: Average external-Abs DC50

[
  {
    "COMPOUND": "Cc1ncsc1-c1ccc(CNC(=O)[C@@H]2C[C@@H](O)CN2C(=O)[C@@H](NC(=O)[C@H]2CC[C@H](c3cnc(N4C5CCC4CN(c4cc(-c6ccccc6O)nnc4N)C5)nc3)CC2)C(C)(C)C)c(C(=O)N(C)C)c1",
    "DC50": "< 100 nM"
  },
  {
    "COMPOUND": "Cc1ncsc1-c1ccc(CNC(=O)[C@@H]2C[C@@H](O)CN2C(=O)[C@@H](NC(=O)[C@H]2C[C@]3(C[C@H](CN4CCC(c5cnc(N6C7CCC6CN(c6cc(-c8ccccc8O)nnc6N)C7)nc5)CC4)C3)C2)C(C)(C)C)cc1 (some centres unmarked)",
    "DC50": "< 100 nM"
  }
]

Data credit: patent US12624044B2
